- Tested on: Plasmodium falciparum
- ASSAY_NOTES: GSK_TCMDC: Inhibition of Plasmodium falciparum Dd2 in whole red blood cells, using parasite LDH activity as an index of growth. Test compounds present at 2uM
- Assay type: functional
Measured Inhibition determines class: LOW (below 9%), MEDIUM (9% to below 90%), HIGH (90% or more)

Field: example entries. Status: answers known.
COc1cccc(C=Cc2nc(=O)c3ccccc3o2)c1OC ... HIGH
CN(C)Cc1cccc(-c2ccc(NC(=O)c3ccc4c(=O)n(C5CCCCC5)cnc4c3)cc2)c1 ... MEDIUM
CC1(C)N=C(N)N=C(Nc2ccc(F)c(F)c2)N1.Cl ... LOW
CCCN1CC[C@@H](CCCc2ccnc3ccc(O)cc23)[C@@H](CC)C1.Cl ... MEDIUM

-- ask # bin lookup: classify Br.COc1ccc(CCON2C(=N)N=C(N)NC2(C)C)cc1OC by its Inhibition
-- reply HIGH

-- ask # bin lookup: classify COc1ccc(CNCc2ccccc2)cc1-c1ccc(S(=O)(=O)NCCN2CCCC2)c(F)c1.O=C(O)C(F)(F)F by its Inhibition
-- reply MEDIUM

-- ask # bin lookup: classify O=C(O)C(F)(F)F.O=C1CCCN1CCCNCc1ccc(-c2cccc(-c3nc4cc(C(F)(F)F)ccc4[nH]3)c2)cc1 by its Inhibition
-- reply HIGH

-- ask # bin lookup: classify COc1cc(Cc2cnc(N)nc2N)cc(OC)c1OCCCCCN1C(=O)c2ccccc2C1=O by its Inhibition
-- reply LOW
